Recorded measurements of IC50, one per entry
Target: SARM1 (50-724) (Homo sapiens)
Sequence (Q6SZW1 50-724): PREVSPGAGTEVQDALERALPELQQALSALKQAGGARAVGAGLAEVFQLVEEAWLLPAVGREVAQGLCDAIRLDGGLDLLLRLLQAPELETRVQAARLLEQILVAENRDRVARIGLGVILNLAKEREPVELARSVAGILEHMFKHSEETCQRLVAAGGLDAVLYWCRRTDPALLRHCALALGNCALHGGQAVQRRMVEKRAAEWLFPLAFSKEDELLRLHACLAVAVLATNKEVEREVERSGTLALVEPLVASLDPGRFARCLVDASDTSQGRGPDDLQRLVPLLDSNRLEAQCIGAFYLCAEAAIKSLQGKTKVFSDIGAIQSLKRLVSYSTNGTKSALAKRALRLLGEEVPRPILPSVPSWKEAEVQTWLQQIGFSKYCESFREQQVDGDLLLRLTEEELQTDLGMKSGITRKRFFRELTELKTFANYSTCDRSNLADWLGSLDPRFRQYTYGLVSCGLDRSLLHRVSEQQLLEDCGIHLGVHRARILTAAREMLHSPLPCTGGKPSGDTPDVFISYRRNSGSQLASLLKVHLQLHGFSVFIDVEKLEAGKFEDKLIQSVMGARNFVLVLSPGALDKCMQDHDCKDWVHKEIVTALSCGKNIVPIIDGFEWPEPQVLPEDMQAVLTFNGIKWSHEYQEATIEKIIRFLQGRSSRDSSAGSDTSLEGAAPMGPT
Value type: IC50

INSERT INTO assay_data (molecule_smiles, value_type, measured) VALUES
  ('CN(C)c1ccncc1-n1cnnc1-c1nc2cc(C(F)(F)F)ccc2[nH]1', 'IC50', '≤ 100 nM'),
  ('OCCOc1cc(-n2cnnc2-c2cc3cc(C(F)(F)F)cc(F)c3[nH]2)c(OC(F)(F)F)cn1', 'IC50', '≤ 100 nM'),
  ('FC(F)(F)c1ccc2[nH]c(-c3ccnn3-c3cnccc3C(F)(F)F)nc2c1', 'IC50', '≤ 100 nM'),
  ('FC(F)(F)c1ccc2[nH]c(-c3nncn3-c3cnccc3C(F)(F)F)cc2c1', 'IC50', '≤ 100 nM'),
  ('FC(F)(F)Oc1ccc2[nH]c(-c3nncn3-c3cccc(Cl)c3Cl)nc2c1', 'IC50', '≤ 100 nM'),
  ('CN(c1ccc2[nH]c(-c3nncn3-c3cnccc3C(F)(F)F)nc2c1)S(C)(=O)=O', 'IC50', '100 to 500 nM'),
  ('FC(F)(F)c1ccc2[nH]c(-c3n[nH]nc3-c3cccc(Cl)c3Cl)nc2c1', 'IC50', '500 to 1000 nM'),
  ('FC(F)(F)c1ccc2[nH]c(C3=C(c4ccccc4Cl)CSC3)nc2c1', 'IC50', '500 to 1000 nM'),
  ('FC(F)(F)Oc1ccc(Oc2ncco2)cc1-n1cnnc1-c1nc2cc(C(F)(F)F)ccc2[nH]1', 'IC50', '≤ 100 nM'),
  ('Fc1cc(C(F)F)cc2nc(-c3nncn3-c3cnccc3C(F)(F)F)[nH]c12', 'IC50', '≤ 100 nM'),
  ('FC(F)(F)c1ccncc1-n1cnnc1-c1nc2c(C3CC3)c(Cl)ccc2[nH]1', 'IC50', '500 to 1000 nM'),
  ('Fc1cc(C(F)(F)F)cc2nc(-c3nncn3-c3cnccc3C(F)(F)F)[nH]c12', 'IC50', '≤ 100 nM'),
  ('Fc1cc(C2(F)CC2)cc2nc(-c3nncn3-c3cnccc3C(F)(F)F)[nH]c12', 'IC50', '≤ 100 nM'),
  ('FC(F)(F)c1ccncc1-n1cnnc1-c1nc2c(-c3cccnc3)c(Cl)ccc2[nH]1', 'IC50', '> 1000 nM'),
  ('FC(F)(F)Oc1cnc(-n2cccn2)cc1-n1cnnc1-c1nc2cc(C(F)(F)F)ccc2[nH]1', 'IC50', '≤ 100 nM'),
  ('NC(=O)C(F)(F)c1ccc2[nH]c(-c3nncn3-c3ccc(F)c(F)c3Cl)nc2c1', 'IC50', '≤ 100 nM');

Values from patent US20260258064A1
